target: the molecule itself; assay: native gel or EMSA; 10 ug MBP fusion protein on a 12% NativePAGE Bis-Tris gel, Coomassie Blue staining; self-association (oligomeric states)
readout_label: binding result

Recorded binding result for His-MBP-CHIP fusion protein, T246M (enzyme, human, UniProt Q9UNE7-1 1-303, looked up, CHIP (STUB1), human, full-length cDNA in pETM-41, pathogenic SCAR16 variant T246M; Variant found in patients; made by site-directed mutagenesis; also called CHIP-T246M; MBP-CHIP T246M; source: E. coli BL21-CodonPlus (DE3)-RP, purified (Ni-NTA)) MKGKEEKEGGARLGAGGGSPEKSPSAQELKEQGNRLFVGRKYPEAAACYGRAITRNPLVAVYYTNRALCYLKMQQHEQALADCRRALELDGQSVKAHFFLGQCQLEMESYDEAIANLQRAYSLAKEQRLNFGDDIPSALRIAKKKRWNSIEERRIHQESELHSYLSRLIAAERERELEECQRNHEGDEDDSHVRAQQACIEAKHDKYMADMDELFSQVDEKRKKRDIPDYLCGKISFELMREPCIMPSGITYDRKDIEEHLQRVGHFDPVTRSPLTQEQLIPNLAMKEVIDAFISENGWVEDY , please?
binds

Any idea what binding result was measured for His-MBP-CHIP fusion protein, S236T (enzyme, human, UniProt Q9UNE7-1 1-303, looked up, CHIP (STUB1), human, full-length cDNA in pETM-41, pathogenic SCAR16 variant S236T; Variant found in patients; made by site-directed mutagenesis; also called MBP-CHIP S236T; source: E. coli BL21-CodonPlus (DE3)-RP, purified (Ni-NTA)) MKGKEEKEGGARLGAGGGSPEKSPSAQELKEQGNRLFVGRKYPEAAACYGRAITRNPLVAVYYTNRALCYLKMQQHEQALADCRRALELDGQSVKAHFFLGQCQLEMESYDEAIANLQRAYSLAKEQRLNFGDDIPSALRIAKKKRWNSIEERRIHQESELHSYLSRLIAAERERELEECQRNHEGDEDDSHVRAQQACIEAKHDKYMADMDELFSQVDEKRKKRDIPDYLCGKITFELMREPCITPSGITYDRKDIEEHLQRVGHFDPVTRSPLTQEQLIPNLAMKEVIDAFISENGWVEDY ?
binds

// returns reported binding result for input His-MBP-CHIP fusion protein, M211I (enzyme, human, UniProt Q9UNE7-1 1-303, looked up, CHIP (STUB1), human, full-length cDNA in pETM-41, pathogenic SCAR16 variant M211I; Variant found in patients; made by site-directed mutagenesis; also called MBP-CHIP M211I; source: E. coli BL21-CodonPlus (DE3)-RP, purified (Ni-NTA)) MKGKEEKEGGARLGAGGGSPEKSPSAQELKEQGNRLFVGRKYPEAAACYGRAITRNPLVAVYYTNRALCYLKMQQHEQALADCRRALELDGQSVKAHFFLGQCQLEMESYDEAIANLQRAYSLAKEQRLNFGDDIPSALRIAKKKRWNSIEERRIHQESELHSYLSRLIAAERERELEECQRNHEGDEDDSHVRAQQACIEAKHDKYMADIDELFSQVDEKRKKRDIPDYLCGKISFELMREPCITPSGITYDRKDIEEHLQRVGHFDPVTRSPLTQEQLIPNLAMKEVIDAFISENGWVEDY
binds
